Cited source for all entries: paper PMC11790914

# tgt: AURKA (Homo sapiens)
# Construct: made in house
# Sequence (O14965 1-403): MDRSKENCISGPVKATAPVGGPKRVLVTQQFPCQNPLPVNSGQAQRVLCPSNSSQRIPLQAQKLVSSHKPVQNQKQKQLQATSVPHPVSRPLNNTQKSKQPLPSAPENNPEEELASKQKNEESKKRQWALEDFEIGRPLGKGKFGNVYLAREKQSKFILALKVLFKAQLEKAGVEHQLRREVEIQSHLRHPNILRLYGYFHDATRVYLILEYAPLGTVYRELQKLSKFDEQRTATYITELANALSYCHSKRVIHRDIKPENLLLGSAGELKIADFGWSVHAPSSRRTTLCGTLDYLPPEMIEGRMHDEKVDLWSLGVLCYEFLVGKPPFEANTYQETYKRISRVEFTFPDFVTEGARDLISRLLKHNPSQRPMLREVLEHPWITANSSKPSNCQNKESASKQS
# assayText: Liability panel screening by DSF: AURKA
# Type: binding
# assaySetup: DSF, 20 µM, n=2; read-out: Mean ΔTM AURKA
measureName: ΔTm at 20 µM (°C)
Write the value in °C as a bare number.

Worked cases, ΔTm at 20 µM given:
molecule	tgt	reported
O=C(/C=C/c1ccc(O)cc1)c1ccc(O)cc1O [Isoliquiritigenin]	AURKA (Homo sapiens)	1.81
CC(=O)OCC(=O)[C@@]1(O)CC[C@H]2[C@@H]3CCC4=CC(=O)CC[C@]4(C)[C@@]3(F)[C@@H](O)C[C@@]21C [Fludrocortisone acetate]	AURKA (Homo sapiens)	0.09
N#CC(Cc1ccc(O)cc1)c1ccc(O)cc1 (stereo not drawn) [Diarylpropionitrile]	AURKA (Homo sapiens)	0.16
CC(C)(c1ccc(O)cc1)c1ccc(O)cc1 [Bisphenol A]	AURKA (Homo sapiens)	0.19
Cc1ccc2c(NC[C@](O)(CC(C)(C)c3cc(F)cc4c3OCC4)C(F)(F)F)cccc2n1 [Mapracorat]	AURKA (Homo sapiens)	-0.69

Exercise: Given CN(C)CCOc1ccc(/C(=C(/CCCO)c2ccccc2)c2ccc(O)cc2)cc1 [GSK5182] , state its recorded ΔTm at 20 µM.
Key: -0.17

====

# maps each entry to its Mean NFκB response
# Tested on: NF-κB activity in HEK293 NF-κB reporter cells
# assayText: NF-kB activity assay (GFP reporter, ionomycin/PMA)
# Assay type: cell-based
# assaySetup: 3 µM, 7,5 h, n=3
# Procedure: Fig. 6 Application of the NR3 CG set. After 24 h, cells were incubated with the test compounds solubilized with 0.1% DMSO in the same medium without puromycin. After 4 h incubation, ionomycin (100 ng/mL) and phorbol-12-myristat-13-acetate (PMA, 10 ng/mL) was added, and the cells were imaged for confluence and GFP expression every 90 min. over 24 h using a Tecan SPARK Cyto (Tecan). The number of GFP expressing cells was normalized to confluence in each sample. […]

Worked cases, Mean NFκB response given:
> print(dat)
                                   molecule                              reported
1  CCN(CC)c1ccc(/C=N/NC(=O)c2ccc(O)cc2)cc1 [DY131]  9363.33 GFP+-cells/confluence ∙ 1000
2  CC(C)c1ccc(/C=N/NC(=O)c2ccc(O)cc2)cc1 [GSK4716]  8902.65 GFP+-cells/confluence ∙ 1000

Exercise: Given CC/C(=C(/CC)c1ccc(O)cc1)c1ccc(O)cc1 [Diethylstilbestrol] , state its recorded Mean NFκB response.
Key: 5380.00 GFP+-cells/confluence ∙ 1000

Exercise: Continue with CC#C[C@]1(O)CC[C@H]2[C@@H]3CCC4=CC(=O)CCC4=C3[C@@H](c3ccc(N(C)C)cc3)C[C@@]21C [Mifepristone]
Key: 7536.67 GFP+-cells/confluence ∙ 1000

Exercise: Continue with CC/C(=C(\c1ccc(O)cc1)c1ccc(OCCN(C)C)cc1)c1ccccc1 [(Z)-4-Hydroxytamoxifen]
Key: 7514.38 GFP+-cells/confluence ∙ 1000
